B1: tRNA (parent)
chain: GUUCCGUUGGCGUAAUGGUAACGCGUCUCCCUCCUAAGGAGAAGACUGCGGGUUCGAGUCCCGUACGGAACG

# Variants of: B1
# test.summary: yeast fitness relative to wild type (ratio to wild type); higher = fitter; tRNA-Arg(CCU), competitive growth, 37 C, YPD
This sample holds only a part of the variants without activity.
Recorded yeast fitness values for a group of variants are listed next.

| sequence.change | relation.symbol | yeast fitness |
| --- | --- | --- |
| G23A C34A | = | 0.523 |
| U26C C27U C62U | = | 0.754 |
| U13C C22G A36U C62U C66U A69C | ≤ | 0.5 |
| G18A U47C | = | 0.728 |
| G9A C27A | = | 0.955 |
| A15U A20U C24U A65G A70C | ≤ | 0.5 |
